Tested on: Mus musculus
assay_protocol: Drug uptake in mouse Colon 26 cells xenografted iv dosed BALB/c mouse after 48 hrs by PET imaging
Assay type: ADME, organism-based
condition_info: in vivo
measurement_kind: Drug uptake

CC[C@H]1c2cc3[nH]c4c(c5nc(cc6[nH]c(cc(n2)[C@@H]1C)c(C(C)OCc1cccc([124I])c1)c6C)C(C)=C5CCC(=O)O)CC(=O)c4c3C (some centres undefined) :: Active
CCC1=C(C)c2cc3[nH]c(cc4nc(c5c6[nH]c(cc1n2)c(C)c6C(=O)C5)C(CCC(=O)OC)[C@@H]4C)c(C)c3C(C)OCc1cccc([124I])c1 (some centres undefined) :: Active
CC[C@H]1c2cc3[nH]c4c(c5nc(cc6[nH]c(cc(n2)[C@@H]1C)c(C(C)OCc1cccc([124I])c1)c6C)C(C)=C5CCC(=O)OC)CC(=O)c4c3C (some centres undefined) :: Active
CCC1=C(C)c2cc3[nH]c(cc4nc(c5c6[nH]c(cc1n2)c(C)c6C(=O)C5)C(CCC(=O)O)[C@@H]4C)c(C)c3C(C)OCc1cccc([124I])c1 (some centres undefined) :: Active
